Quick list: IC50 per entry.
Target of assay: T1, human PD-L1 (human, UniProt Q9NZQ7 19-290)
T1 construct: whole, on cells; also called hPD-L1; PD-L1 antigen on MDA-MB-231 cells
T1 sequence (Q9NZQ7 19-290): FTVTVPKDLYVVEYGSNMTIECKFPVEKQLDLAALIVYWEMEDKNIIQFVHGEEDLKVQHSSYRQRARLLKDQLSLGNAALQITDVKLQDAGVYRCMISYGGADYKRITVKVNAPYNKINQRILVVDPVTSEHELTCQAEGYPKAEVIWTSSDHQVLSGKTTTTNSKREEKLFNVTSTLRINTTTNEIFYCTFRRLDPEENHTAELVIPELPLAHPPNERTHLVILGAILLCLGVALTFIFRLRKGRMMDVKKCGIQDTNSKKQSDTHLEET
Protocol notes: competitive FACS: blocks human-CD80-mFc binding to 293T-PD-L1 cells
Give the quantity in nM, number only.

Binder: antibody A (VHH, Anti-PD-L1 alpaca nanobody) VHH: QVQLVESGGGLVQAGGSLRLSCAASGRSFSSSGMGWFRQAPGKDREFVATINSSGGDTYYRDSVEGRFTTSRDNAKNTMSLQMNDLKPEDTAVYYCAAKEGGGPSSIPAIYDYWGQGTQVTVSS
Uom: nM
IC50: 3.95
//
Binder: antibody C (VHH, Anti-PD-L1 alpaca nanobody) VHH: EVQLVESGGGSVQTGGSLRLSCVASGRDFLTYGMGWFRQAPGKEREFVASINWSGSMTYYADSVKGRFTISRDNAKNTVYLQMNSLKPGDTAVYICAARRGAVTYASSNEYEHWGQGTQVTVSS
Uom: nM
IC50: 4.15

Reported IC50 for antibody B (VHH, Anti-PD-L1 alpaca nanobody) VHH: QVQLVESGGGLVQPGGSLSLSCVASGFTFSSYAMRWVRQAPGKEPEWVAGINTGSEIVVYANSVRGRFAISRDNARDTLFLQMNSLKPEDTAVYYCATGLVSAEHDGIWGQGTQVTVSS was 3.35
